Catalogue of cAMP released with respect to control, 1 nM peptide, UMR-106 cells values
Target: T1, rat PTH-1R (rat PTHR endogenously expressed on UMR-106 rat osteosarcoma cells) (rat, UniProt P25961 27-591)
T1 sequence (looked up): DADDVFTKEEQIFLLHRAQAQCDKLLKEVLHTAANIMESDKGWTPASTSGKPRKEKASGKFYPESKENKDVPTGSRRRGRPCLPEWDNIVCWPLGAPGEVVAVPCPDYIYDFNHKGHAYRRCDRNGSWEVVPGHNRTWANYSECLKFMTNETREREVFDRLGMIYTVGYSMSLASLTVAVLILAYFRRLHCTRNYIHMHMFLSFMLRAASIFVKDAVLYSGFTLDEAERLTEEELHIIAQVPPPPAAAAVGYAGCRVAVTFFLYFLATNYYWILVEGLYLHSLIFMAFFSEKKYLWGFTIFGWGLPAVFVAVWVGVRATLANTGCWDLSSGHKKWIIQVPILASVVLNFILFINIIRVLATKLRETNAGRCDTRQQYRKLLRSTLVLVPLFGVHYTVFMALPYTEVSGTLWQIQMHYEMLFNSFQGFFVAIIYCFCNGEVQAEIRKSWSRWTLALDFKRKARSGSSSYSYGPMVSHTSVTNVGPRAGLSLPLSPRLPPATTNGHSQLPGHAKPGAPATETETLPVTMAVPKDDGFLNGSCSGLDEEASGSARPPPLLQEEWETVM
Assay: cell-based or functional assay
Where no end group is shown, it is not given here. [ ]: non-standard residue; d: D form. Bip(2'-Et-4'-OMe) = CCc1cc(OC)ccc1-c1ccc(C[C@H](N)C(=O)O)cc1; Arg(NO2) = N=C(NCCC[C@H](N)C(=O)O)N[N+](=O)[O-]; αMePhe(2,6-F2) = C[C@](N)(Cc1c(F)cccc1F)C(=O)O; αMePhe(2-F) = C[C@](N)(Cc1ccccc1F)C(=O)O; hhPhe = N[C@@H](CCCc1ccccc1)C(=O)O; hArg = N=C(N)NCCCC[C@H](N)C(=O)O; αMeF = C[C@](N)(Cc1ccccc1)C(=O)O; Cit = NC(=O)NCCC[C@H](N)C(=O)O; αMeP = C[C@@]1(C(=O)O)CCCN1; Nle = CCCC[C@H](N)C(=O)O; Orn = NCCC[C@H](N)C(=O)O; Ac5c = NC1(C(=O)O)CCCC1; Ac3c = NC1(C(=O)O)CC1; Aib = CC(C)(N)C(=O)O

Reference set (8 entries):
Which measured cAMP released with respect to control, 1 nM peptide, UMR-106 cells value corresponds to [Ac5c]V[Aib]EIQ[αMePhe(2,6-F2)][Nle]HQ[Cit]A[Cit][αMePhe(2-F)] [Seq. ID. 351] ? 38 percent of control

Next up: [Aib]V[Ac5c]EIQ[αMePhe(2,6-F2)][Nle]HQ[hArg][αMeP]K[αMePhe(2-F)] [Seq. ID. 78] 23 percent of control

Next up: [Ac5c]V[Aib]EIQL[Nle]HQ[αMePhe(2,6-F2)]A[Aib][Bip(2'-Et-4'-OMe)][hhPhe] [Seq. ID. 799] 38 percent of control

Next up: [Aib]V[Aib]EIQLMHQ[hArg][Aib]K[αMeF] [Seq. ID. 9] 16 percent of control

Next up: [Ac5c]V[Aib]EIQ[αMePhe(2-F)][Nle]HQ[Aib][Aib][Cit][αMePhe(2-F)] [Seq. ID. 540] 16 percent of control

Next up: [Aib]V[Aib]EIQ[αMePhe(2-F)][Nle]HQ[Orn][Aib][Arg(NO2)][αMePhe(2-F)] [Seq. ID. 330] 18 percent of control

Next up: [Ac3c]V[Ac3c]EIQLMHQ[hArg]AK[Bip(2'-Et-4'-OMe)][hhPhe] [Seq. ID. 609] 39 percent of control

Next up: [Aib]V[Aib]EIQ[αMePhe(2-F)][Nle]HQ[hArg][αMeP]K[αMePhe(2,6-F2)] [Seq. ID. 91] 42 percent of control

New cases:
Which measured cAMP released with respect to control, 1 nM peptide, UMR-106 cells value corresponds to [Ac3c]V[Aib]EIQ[αMePhe(2-F)][Nle]HQ[hArg][αMeP]K[αMePhe(2-F)] [Seq. ID. 59] ? 19 percent of control

Next up: [Ac5c]V[Aib]EIQ[αMePhe(2-F)][Nle]HQ[Cit][Aib][Aib][αMePhe(2,6-F2)] [Seq. ID. 372] 32 percent of control

Next up: [Ac3c]V[Aib]EIQ[αMePhe(2,6-F2)][Nle]HQ[hArg][Aib][Aib][αMePhe(2-F)] [Seq. ID. 174] 31 percent of control
